All figures here come from patent US12509460B2.

The entries below come with measured Papp B→A at 120 min, 5 μM values attached.
Tested on: MDR1 (P-gp)
method notes: in vitro
condition context: dog, MDCK-MDR1, pH 7.4
Enter your answer as a number in ×10⁻⁶ cm/s; do not include the unit.

{"columns": ["molecule", "Papp B→A at 120 min, 5 μM (×10⁻⁶ cm/s)"],
 "data": [
  ["CN(c1ccc(-c2cc3c(=O)n(C)cnc3cc2O)nn1)[C@@H]1C[C@H]2CC[C@@H]([C@@H]1F)N2C [Compound 102A]", 58.1],
  ["CN(c1ccc(-c2cc(C#N)c(F)cc2O)nn1)[C@@H]1C[C@H]2CC[C@H](N2)[C@@H]1F [Compound 72A]", 39.9],
  ["CN(c1ccc(-c2ccc(C3CC3)cc2O)nn1)[C@H]1C[C@@H]2CC[C@@H](N2)[C@H]1F (single isomer, unassigned) [Compound 31B]", 27]
]}

IN: Returns the measured Papp B→A at 120 min, 5 μM for the input molecule. Input: CN(C)C(=O)c1cc(O)c(-c2ccc(N(C)[C@H]3C[C@@H]4CC[C@@H](N4)[C@H]3F)nn2)cc1F (single isomer, unassigned) [Compound 53B]
OUT: 41.8

IN: Next up: CN(c1ccc(-c2ccc(Oc3nccn3C)cc2O)nn1)[C@H]1C[C@@H]2CC[C@@H](N2)[C@H]1F (single isomer, unassigned) [Compound 123B]
OUT: 58.7

IN: # iterate: CN1[C@H]2CC[C@@H]1[C@@H](F)[C@@H](N(c1ccc(-c3cc4ncn(CC(F)(F)F)c(=O)c4cc3O)nn1)C1CC1)C2 (single isomer, unassigned) [Compound 111B]
OUT: 35.9

----------
System: MDR1-MDCK cell monolayers
method notes: Blood-brain-barrier (BBB) penetration potential via MDCK-MDR1 permeability assay
condition context: B-A direction
assay metric: MDCK-MDR1: % Recov B-A

{"columns": ["compound", "system under test", "assay metric", "value reported"],
 "data": [
  ["CN(c1ccc(-c2ccc(-c3cnn(C(F)F)c3)cc2O)nn1)[C@H]1C[C@@H]2CCC[C@@H](N2)[C@H]1F [Compound 21B]", "MDR1-MDCK cell monolayers", "MDCK-MDR1: % Recov B-A", "68%"],
  ["Cc1cnc(-c2ccc(-c3ccc(N(C)[C@H]4C[C@@H]5CCC[C@@H](N5)[C@H]4F)nn3)c(O)c2)o1 [Compound 16B]", "MDR1-MDCK cell monolayers", "MDCK-MDR1: % Recov B-A", "26%"]
]}

IN: Please look up its MDCK-MDR1: % Recov B-A: CN(c1ccc(-c2ccc(-c3ccn(C)n3)cc2O)nn1)[C@@H]1C[C@H]2CC[C@H](N2)[C@@H]1F (single isomer, unassigned) [Compound 36A]
OUT: 82%

IN: Same lookup for CN(c1ccc(-c2cc3cccnc3cc2O)nn1)[C@@H]1C[C@H]2CC(F)(F)[C@@H](C1)N2 [Compound 45A] , please.
OUT: 115%

IN: Try this compound next: CN(c1ccc(-c2cc3ncn(CC(F)(F)F)c(=O)c3cc2O)nn1)[C@@H]1C[C@H]2CC[C@H](N2)[C@@H]1F [Compound 81A]
OUT: 94%

IN: And then COc1cc(-c2ccc(-c3ccc(N(C)[C@H]4CC5N[C@@H](C4)CC5(F)F)nn3)c(O)c2)cnn1 (single isomer, unassigned) [Compound 2B] , what is it?
OUT: 84%

IN: Field entry: COc1cnc(-c2ccc(-c3ccc(N(C)[C@@H]4C[C@H]5CCC[C@H](N5)[C@@H]4F)nn3)c(O)c2)cn1 [Compound 29A]
OUT: 60%

IN: Likewise for C#Cc1ccc(-c2ccc(N(C)[C@@H]3C[C@H]4CC[C@H](N4)[C@@H]3F)nn2)c(O)c1 [Compound 10A] ?
OUT: 67%

----------
Tested on: MDR1-MDCK cell monolayers
condition context: dog, MDCK-MDR1, 120 min, 5 μM, pH 7.4
Reported MDCK-MDR1: % Recov B-A values for the following molecules.
All answers are understood in %, so give the number only.

Examples with answers:
{"columns": ["molecule", "units label", "value reported"],
 "data": [
  ["CN(c1ccc(-c2cc(C#N)ccc2O)nn1)[C@@H]1C[C@H]2CC[C@H](N2)[C@@H]1F (single isomer, unassigned) [Compound 70A]", "%", 89],
  ["CCc1cn(-c2ccc(-c3ccc(N(C)[C@@H]4C[C@H]5CC(F)(F)[C@@H](C4)N5)nn3)c(O)c2)nn1 (single isomer, unassigned) [Compound 64A]", "%", 78],
  ["CN(C)C(=O)c1cc(O)c(-c2ccc(N(C)[C@@H]3C[C@H]4CC[C@@H]([C@@H]3F)N4C)nn2)cc1F (single isomer, unassigned) [Compound 104A]", "%", 105],
  ["CN(c1ccc(-c2cc3ccn(C)c(=O)c3s2)nn1)[C@@H]1C[C@H]2CC[C@H](N2)[C@@H]1F (single isomer, unassigned) [Compound 67A]", "%", 99],
  ["CNC(=O)c1cc(O)c(-c2ccc(N(C)[C@@H]3C[C@H]4CC[C@H](N4)[C@@H]3F)nn2)cc1F [Compound 47A]", "%", 108],
  ["CN(C)C(=O)c1cc2cc(O)c(-c3ccc(N(C)[C@H]4C[C@@H]5CC[C@H]([C@H]4F)N5C)nn3)cc2o1 (single isomer, unassigned) [Compound 106B]", "%", 99]
]}

IN: Return reported MDCK-MDR1: % Recov B-A; argument: CN(c1ccc(-c2ccc(Oc3nccn3C)cc2O)nn1)[C@H]1C[C@@H]2CC[C@@H](N2)[C@H]1F (single isomer, unassigned) [Compound 123B]
OUT: 102

IN: Moving on to the next molecule: CN(c1ccc(-c2cc3ncn(CC(F)(F)F)c(=O)c3cc2O)nn1)[C@H]1C[C@@H]2CC(F)(F)[C@H](C1)N2 [Compound 59B]
OUT: 101

IN: Another molecule: CN(c1ccc(-c2cc3cnccc3cc2O)nn1)[C@@H]1C[C@H]2CC[C@@H]([C@@H]1F)N2C [Compound 93A]
OUT: 70

IN: Same question, CN1[C@@H]2CC[C@H]1[C@H](F)[C@H](N(c1ccc(-c3cc4oc(C(=O)N5CCC5)cc4cc3O)nn1)C1CC1)C2 (single isomer, unassigned) [Compound 92A] this time
OUT: 88

IN: Consider next the molecule CN(c1ccc(-c2cc3ncn(CC(F)(F)F)c(=O)c3cc2O)nn1)[C@@H]1C[C@H]2CC[C@@H]([C@@H]1F)N2C (single isomer, unassigned) [Compound 108A] in the same way.
OUT: 91

IN: Same lookup for CN(C)C(=O)c1cc(O)c(-c2ccc(N(C)[C@H]3C[C@@H]4CC[C@@H](N4)[C@H]3F)nn2)cc1F (single isomer, unassigned) [Compound 53B] , please.
OUT: 112

----------
System: MDR1-MDCK cell monolayers
method notes: Blood-brain-barrier (BBB) penetration potential via MDCK-MDR1 permeability assay
condition context: efflux ratio
Please note: criterion met applies when MDCK-MDR1: Efflux is 8 or greater, and criterion not met applies otherwise.

Before answering, review these 3 worked examples.
{"columns": ["compound", "category"],
 "data": [
  ["CN(c1ccc(-c2ccc(-c3cnn(C)c3)cc2O)nn1)C1CC2COCC(N2)C1F (single isomer, unassigned) [Compound 80B]", "criterion not met"],
  ["CN(c1ccc(-c2ccc(-c3cn[nH]c3)cc2O)nn1)C1CC2COCC(N2)C1F (centres unmarked) [Compound 8B]", "criterion met"],
  ["CN(c1ccc(-c2cc3c(=O)[nH]ccc3s2)nn1)[C@@H]1C[C@H]2CC[C@H](N2)[C@@H]1F [Compound 6A]", "criterion met"]
]}

Consider the record given below.
IN: Is MDCK-MDR1: Efflux for COc1cc(-c2ccc(-c3ccc(N(C)[C@H]4CC5N[C@@H](C4)CC5(F)F)nn3)c(O)c2)cnn1 (single isomer, unassigned) [Compound 2B] at or above 8?
OUT: criterion not met

----------
Tested on: MDR1 (P-gp)
method notes: Blood-brain-barrier (BBB) penetration potential via MDCK-MDR1 permeability assay
condition context: dog, MDCK-MDR1, pH 7.4, MDCK-MDR1: Papp B-A, B-A direction
This listing pairs compounds with measured Papp B→A at 120 min, 5 μM.
Express the result in ×10⁻⁶ cm/s but write the number alone.

# count of solved cases: 2
{"columns": ["compound", "Papp B→A at 120 min, 5 μM (×10⁻⁶ cm/s)"],
 "data": [
  ["CNC(=O)c1cc(O)c(-c2ccc(N(C)[C@H]3C[C@@H]4CC[C@@H](N4)[C@H]3F)nn2)cc1F [Compound 47B]", 49.8],
  ["CN(c1ccc(-c2cc3cccnc3cc2O)nn1)[C@H]1C[C@@H]2CCC[C@@H](N2)[C@H]1F [Compound 41B]", 36.7]
]}

API: the following record is the query input.
IN: Would you kindly share the measured Papp B→A at 120 min, 5 μM for CN(c1ccc(-c2ccc(-c3cn[nH]c3)cc2O)nn1)[C@@H]1C[C@H]2CC[C@H](N2)[C@@H]1F (single isomer, unassigned) [Compound 42A] ?
OUT: 36.8
